B1: TRIM55 (parent)
chain: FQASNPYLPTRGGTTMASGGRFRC

Variants of: B1
Test: protein stability index of a GFP-peptide fusion (GPS, HEK-293T) (PSI 1-6); higher = more stable;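 also: lentivirally expressed fusions sorted by FACS into six bins by GFP to DsRed ratio, PSI derived from sequencing read proportions per bin multiplied by bin number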
Conditions: c terminus: a fixed tail appended
propertyMeasured: protein stability index

variantdescriptor=A3P propertymeasured="protein stability index" measuredvalue=2.02
variantdescriptor=A3Y propertymeasured="protein stability index" measuredvalue=1.95
variantdescriptor=S4E propertymeasured="protein stability index" measuredvalue=1.95
variantdescriptor=G19L propertymeasured="protein stability index" measuredvalue=2
variantdescriptor=A3R propertymeasured="protein stability index" measuredvalue=2.46
variantdescriptor=T10F propertymeasured="protein stability index" measuredvalue=2.19
variantdescriptor=S18N propertymeasured="protein stability index" measuredvalue=2.19
variantdescriptor=G13H propertymeasured="protein stability index" measuredvalue=2.32
variantdescriptor=G13C propertymeasured="protein stability index" measuredvalue=1.65
variantdescriptor=M16A propertymeasured="protein stability index" measuredvalue=1.57
variantdescriptor=N5W propertymeasured="protein stability index" measuredvalue=2.49
variantdescriptor=G13P propertymeasured="protein stability index" measuredvalue=1.7
variantdescriptor=F1I propertymeasured="protein stability index" measuredvalue=3.13
variantdescriptor=G12T propertymeasured="protein stability index" measuredvalue=2.13
variantdescriptor=R21S propertymeasured="protein stability index" measuredvalue=1.75
variantdescriptor=F22I propertymeasured="protein stability index" measuredvalue=1.57
variantdescriptor=F1R propertymeasured="protein stability index" measuredvalue=3.57
variantdescriptor=P9A propertymeasured="protein stability index" measuredvalue=1.14
variantdescriptor=A3F propertymeasured="protein stability index" measuredvalue=2.69
variantdescriptor=P9K propertymeasured="protein stability index" measuredvalue=2.09
variantdescriptor=R23E propertymeasured="protein stability index" measuredvalue=1.99
variantdescriptor=G12C propertymeasured="protein stability index" measuredvalue=2.23
variantdescriptor=T14I propertymeasured="protein stability index" measuredvalue=2
variantdescriptor=S18T propertymeasured="protein stability index" measuredvalue=2.23
variantdescriptor=P9R propertymeasured="protein stability index" measuredvalue=2.1
variantdescriptor=G19Q propertymeasured="protein stability index" measuredvalue=2.06
variantdescriptor=L8V propertymeasured="protein stability index" measuredvalue=2.03
variantdescriptor=P6A propertymeasured="protein stability index" measuredvalue=1.96
variantdescriptor=T15E propertymeasured="protein stability index" measuredvalue=1.48
variantdescriptor=C24E propertymeasured="protein stability index" measuredvalue=2.51
variantdescriptor=R23N propertymeasured="protein stability index" measuredvalue=1.48
variantdescriptor=S4T propertymeasured="protein stability index" measuredvalue=2.81
variantdescriptor=R11S propertymeasured="protein stability index" measuredvalue=2.02
variantdescriptor=Y7L propertymeasured="protein stability index" measuredvalue=1.9
variantdescriptor=N5F propertymeasured="protein stability index" measuredvalue=3.23
variantdescriptor=Y7M propertymeasured="protein stability index" measuredvalue=2.68
variantdescriptor=G20C propertymeasured="protein stability index" measuredvalue=1.6
variantdescriptor=G13M propertymeasured="protein stability index" measuredvalue=2.65
variantdescriptor=G12F propertymeasured="protein stability index" measuredvalue=2.86
variantdescriptor=S18D propertymeasured="protein stability index" measuredvalue=2.09
variantdescriptor=T14D propertymeasured="protein stability index" measuredvalue=1.27
variantdescriptor=G19M propertymeasured="protein stability index" measuredvalue=1.49
variantdescriptor=P9M propertymeasured="protein stability index" measuredvalue=1.83
variantdescriptor=Q2K propertymeasured="protein stability index" measuredvalue=2.85
variantdescriptor=Q2V propertymeasured="protein stability index" measuredvalue=1.74
variantdescriptor=T15H propertymeasured="protein stability index" measuredvalue=1.18
variantdescriptor=T15M propertymeasured="protein stability index" measuredvalue=1.72
variantdescriptor=G20A propertymeasured="protein stability index" measuredvalue=2.62
variantdescriptor=G20H propertymeasured="protein stability index" measuredvalue=1.66
variantdescriptor=T14R propertymeasured="protein stability index" measuredvalue=1.41
variantdescriptor=P9W propertymeasured="protein stability index" measuredvalue=2.09
variantdescriptor=P9H propertymeasured="protein stability index" measuredvalue=1.86
variantdescriptor=F1C propertymeasured="protein stability index" measuredvalue=2.2
variantdescriptor=R11W propertymeasured="protein stability index" measuredvalue=2.68
variantdescriptor=R23G propertymeasured="protein stability index" measuredvalue=1.6
variantdescriptor=Y7P propertymeasured="protein stability index" measuredvalue=3.54
variantdescriptor=L8M propertymeasured="protein stability index" measuredvalue=1.26
variantdescriptor=Y7G propertymeasured="protein stability index" measuredvalue=3.29
variantdescriptor=G20R propertymeasured="protein stability index" measuredvalue=1.96
variantdescriptor=A17D propertymeasured="protein stability index" measuredvalue=1.76
variantdescriptor=Q2M propertymeasured="protein stability index" measuredvalue=2
